System: 171881-019-R-J1-PDC complex spheroid growth, % test/control;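 also: spheroids exposed to compounds for 7 days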
Experiment: Anticancer human tumor 171881-019-R-J1-PDC patient-derived invasive breast carcinoma cell line growth inhibition [Asc]
Conditions: second compound 0.949 µM; first compound 0.1 µM; hits give low values
# reported viability, T/C; entries follow
measured-quantity: viability, T/C (%)

[
  {
    "molecule": "O=C(c1ccc(F)c(F)c1Nc1ccc(I)cc1F)N1CC(O)([C@@H]2CCCCN2)C1 + CCN1C(C(=O)NC23CCC(C(=O)O)(CC2)CC3)C(c2cccc(Cl)c2F)C2(C(=O)Nc3cc(Cl)ccc32)C12CCCCC2",
    "measured-quantity": "viability, T/C",
    "reported": 127
  },
  {
    "molecule": "C=C(F)C(=O)N1CCN(c2nc(OCC3CCCN3C)nc3c2CCN(c2cccc4cccc(Cl)c24)C3)CC1CC#N (stereo not given) + CCN1C(C(=O)NC23CCC(C(=O)O)(CC2)CC3)C(c2cccc(Cl)c2F)C2(C(=O)Nc3cc(Cl)ccc32)C12CCCCC2",
    "measured-quantity": "viability, T/C",
    "reported": 120
  },
  {
    "molecule": "NC1CCC(NC2CC2c2ccccc2)CC1 (stereo not given) + CCN1C(C(=O)NC23CCC(C(=O)O)(CC2)CC3)C(c2cccc(Cl)c2F)C2(C(=O)Nc3cc(Cl)ccc32)C12CCCCC2",
    "measured-quantity": "viability, T/C",
    "reported": 115
  },
  {
    "molecule": "O=C(c1cc(Cc2n[nH]c(=O)c3ccccc23)ccc1F)N1CCN(C(=O)C2CC2)CC1 + CCN1C(C(=O)NC23CCC(C(=O)O)(CC2)CC3)C(c2cccc(Cl)c2F)C2(C(=O)Nc3cc(Cl)ccc32)C12CCCCC2",
    "measured-quantity": "viability, T/C",
    "reported": 103
  },
  {
    "molecule": "C#Cc1c(F)ccc2cc(O)cc(-c3ncc4c(N5CC6CCC(C5)N6)nc(OCC56CCCN5CC(F)C6)nc4c3F)c12 (stereo not given) + CCN1C(C(=O)NC23CCC(C(=O)O)(CC2)CC3)C(c2cccc(Cl)c2F)C2(C(=O)Nc3cc(Cl)ccc32)C12CCCCC2",
    "measured-quantity": "viability, T/C",
    "reported": 123
  },
  {
    "molecule": "CNC(C)C(=O)NC1CN(S(=O)(=O)c2cccc(S(=O)(=O)N3CCC4CCC(C(=O)NC(c5ccccc5)c5ccccc5)N4C(=O)C(NC(=O)C(C)NC)C3)c2)CCC2CCC(C(=O)NC(c3ccccc3)c3ccccc3)N2C1=O (stereo not given) + CCN1C(C(=O)NC23CCC(C(=O)O)(CC2)CC3)C(c2cccc(Cl)c2F)C2(C(=O)Nc3cc(Cl)ccc32)C12CCCCC2",
    "measured-quantity": "viability, T/C",
    "reported": 88.5
  },
  {
    "molecule": "COc1c(OCCCN2CCOCC2)ccc2c3n(c(=NC(=O)c4cnc(N)nc4)nc12)CCN3 + CCN1C(C(=O)NC23CCC(C(=O)O)(CC2)CC3)C(c2cccc(Cl)c2F)C2(C(=O)Nc3cc(Cl)ccc32)C12CCCCC2",
    "measured-quantity": "viability, T/C",
    "reported": 12.8
  },
  {
    "molecule": "C=CC(=O)N1CCN(c2nc(=O)n(-c3c(C)ccnc3C(C)C)c3nc(-c4c(O)cccc4F)c(F)cc23)C(C)C1 (stereo not given) + CCN1C(C(=O)NC23CCC(C(=O)O)(CC2)CC3)C(c2cccc(Cl)c2F)C2(C(=O)Nc3cc(Cl)ccc32)C12CCCCC2",
    "measured-quantity": "viability, T/C",
    "reported": 104
  },
  {
    "molecule": "CCN1CCN(Cc2ccc(Nc3ncc(F)c(-c4cc(F)c5nc(C)n(C(C)C)c5c4)n3)nc2)CC1 + CCN1C(C(=O)NC23CCC(C(=O)O)(CC2)CC3)C(c2cccc(Cl)c2F)C2(C(=O)Nc3cc(Cl)ccc32)C12CCCCC2",
    "measured-quantity": "viability, T/C",
    "reported": 118
  },
  {
    "molecule": "Cn1ncnc1[C@H]1c2n[nH]c(=O)c3cc(F)cc(c23)N[C@@H]1c1ccc(F)cc1 + CCN1C(C(=O)NC23CCC(C(=O)O)(CC2)CC3)C(c2cccc(Cl)c2F)C2(C(=O)Nc3cc(Cl)ccc32)C12CCCCC2",
    "measured-quantity": "viability, T/C",
    "reported": 120
  }
]
